# System: A2780
# assay-explanation: Cytotoxicity against human A2780 cells assessed as cell viability after 96 hrs by SRB assay
# Type: functional, cell-based
# measurement-parameters: Homo sapiens, A2780, 96 h
I'd be grateful if you could share measured pIC50 for these entries.
pIC50 is defined as minus the log10 of a concentration measured in mol/L.

Tested system A2780; pIC50 recorded for C=C(C)[C@@H]1CC[C@]2([C@H](O)C#CCN3CCSCC3)CC[C@]3(C)[C@H](CC[C@@H]4[C@@]5(C)CC[C@H](OC(C)=O)C(C)(C)[C@@H]5CC[C@]43C)[C@@H]12 was 5.37

A2780 assay, compound C#C[C@H](O)[C@]12CC[C@@H](C(=C)C)[C@@H]1[C@H]1CC[C@@H]3[C@@]4(C)CC[C@H](O)C(C)(C)[C@@H]4CC[C@@]3(C)[C@]1(C)CC2 , recorded pIC50 = 5.01

---

# assay-explanation: Cytotoxicity against human Lipo cells assessed as cell viability after 96 hrs by SRB assay
# Type: functional, cell-based
# measurement-parameters: lipo
attribute-measured: IC50 (µM)
Express the result in µM but write the number alone.

Record summary for C=CCN(CC#C[C@@H](O)[C@]12CC[C@@H](C(=C)C)[C@@H]1[C@H]1CC[C@@H]3[C@@]4(C)CC[C@H](OC(C)=O)C(C)(C)[C@@H]4CC[C@@]3(C)[C@]1(C)CC2)CC=C : reported IC50 = 17

---

# assay-explanation: Cytotoxicity against human Lipo cells assessed as cell viability after 96 hrs by SRB assay
# Type: functional, cell-based
# measurement-parameters: Homo sapiens, Lipo, 96 h
attribute-measured: pIC50
Quick note: pIC50 means taking -log10 of the concentration in moles per liter.

pIC50 reported for this compound C=C(C)[C@@H]1CC[C@]2([C@H](O)C#CCN3CCOCC3)CC[C@]3(C)[C@H](CC[C@@H]4[C@@]5(C)CC[C@H](OC(C)=O)C(C)(C)[C@@H]5CC[C@]43C)[C@@H]12.Cl : 5.62

Entry C#C[C@H](O)[C@]12CC[C@@H](C(=C)C)[C@@H]1[C@H]1CC[C@@H]3[C@@]4(C)CC[C@H](O)C(C)(C)[C@@H]4CC[C@@]3(C)[C@]1(C)CC2 ; pIC50 = 4.89

The value of pIC50 measured for the compound C#C[C@H](O)[C@]12CC[C@@H](C(=C)C)[C@@H]1[C@H]1CC[C@@H]3[C@@]4(C)CC[C@H](OC(C)=O)C(C)(C)[C@@H]4CC[C@@]3(C)[C@]1(C)CC2 turned out to be 4.54

pIC50 recorded for this compound, C=C(C)[C@@H]1CC[C@]2([C@H](O)C#CCN3CCSCC3)CC[C@]3(C)[C@H](CC[C@@H]4[C@@]5(C)CC[C@H](OC(C)=O)C(C)(C)[C@@H]5CC[C@]43C)[C@@H]12 , is 5.46

Looking up C=C(C)[C@@H]1CC[C@]2([C@H](O)C#CCN3CCCC3)CC[C@]3(C)[C@H](CC[C@@H]4[C@@]5(C)CCC(=O)C(C)(C)[C@@H]5CC[C@]43C)[C@@H]12 , I see its pIC50 listed as 5.25

Entry under test: C=C(C)[C@@H]1CC[C@]2([C@@H](O)C#CCN(CCC)CCC)CC[C@]3(C)[C@H](CC[C@@H]4[C@@]5(C)CC[C@H](OC(C)=O)C(C)(C)[C@@H]5CC[C@]43C)[C@@H]12.CI . Its pIC50 was 5.37

Item: C=C(C)[C@@H]1CC[C@]2(C(=O)O)CC[C@]3(C)[C@H](CC[C@@H]4[C@@]5(C)CC[C@H](O)C(C)(C)[C@@H]5CC[C@]43C)[C@@H]12 [BETULINIC ACID] | pIC50: 5.01

// pIC50 lookup, compound = C=C(C)[C@@H]1CC[C@]2([C@H](O)C#CCN(C)C)CC[C@]3(C)[C@H](CC[C@@H]4[C@@]5(C)CC[C@H](OC(C)=O)C(C)(C)[C@@H]5CC[C@]43C)[C@@H]12.Cl , result: 5.07

Note to self: pIC50 recorded for C=C(C)[C@@H]1CC[C@]2([C@H](O)C#CCN3CCNCC3)CC[C@]3(C)[C@H](CC[C@@H]4[C@@]5(C)CC[C@H](OC(C)=O)C(C)(C)[C@@H]5CC[C@]43C)[C@@H]12.Cl was 5.57

The compound listed as C=C(C)[C@@H]1CC[C@]2([C@H](O)C#CCN(CCC)CCC)CC[C@]3(C)[C@H](CC[C@@H]4[C@@]5(C)CC[C@H](OC(C)=O)C(C)(C)[C@@H]5CC[C@]43C)[C@@H]12 has a reported pIC50 of 4.62

Data origin, for the record: ChEMBL document CHEMBL2321859
